- Tested System: rat FAAH (Rattus norvegicus (Rat), UniProt P97612)
- Sequence (P97612 whole entry): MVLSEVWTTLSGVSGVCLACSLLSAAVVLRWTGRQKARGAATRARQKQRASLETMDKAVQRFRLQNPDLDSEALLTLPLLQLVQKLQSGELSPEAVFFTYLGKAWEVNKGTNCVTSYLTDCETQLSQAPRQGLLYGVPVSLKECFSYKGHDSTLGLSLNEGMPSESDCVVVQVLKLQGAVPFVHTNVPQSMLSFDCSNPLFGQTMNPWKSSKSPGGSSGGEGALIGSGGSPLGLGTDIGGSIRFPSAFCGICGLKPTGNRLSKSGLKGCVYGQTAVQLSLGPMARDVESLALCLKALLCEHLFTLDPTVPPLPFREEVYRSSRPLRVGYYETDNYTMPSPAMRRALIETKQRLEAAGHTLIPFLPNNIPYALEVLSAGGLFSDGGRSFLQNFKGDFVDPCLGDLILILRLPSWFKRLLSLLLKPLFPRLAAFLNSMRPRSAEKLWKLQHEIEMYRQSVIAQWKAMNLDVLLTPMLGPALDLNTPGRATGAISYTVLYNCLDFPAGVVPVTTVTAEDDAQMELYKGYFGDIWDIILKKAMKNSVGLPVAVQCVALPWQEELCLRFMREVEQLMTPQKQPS
- Assay Explanation: Assay Method 2: rat FAAH assay (3H-anandamide hydrolysis in cell homogenate)
- Measurement Setup: average of results

>  <Structure As Smiles>
O=C(Nc1cnccc1Cl)N1CCN(Cc2ccc3c(c2)OC(F)(F)O3)CC1

>  <IC50 (nM)>
320

$$$$

====

- Tested System: CYP2D6 (Homo sapiens (Human))
- Assay Explanation: Drug-Drug Interaction (DDI) assay, CYP inhibition in human liver microsomes
- Measurement Setup: read-out: 2D6 Bufuralol IC50, substrate bufuralol
pIC50: −log10 of the molar value.
Recorded pIC50, one value per entry.

>  <Structure As Smiles>
O=C(Nc1cnccc1Cl)N1CCN(Cc2ccc3c(c2)OC(F)(F)O3)CC1

>  <Tested System>
CYP2D6 (Homo sapiens (Human))

>  <pIC50>
4.62

$$$$
>  <Structure As Smiles>
O=C(Nc1cccnc1)N1CCN(Cc2ccc3c(c2)OC(F)(F)O3)CC1

>  <Tested System>
CYP2D6 (Homo sapiens (Human))

>  <pIC50>
5.49

$$$$

====

Consider the following molecules and their measured pIC50 readings.
- Tested System: CYP2D6 (Homo sapiens (Human), UniProt P10635)
- Sequence (P10635 whole entry): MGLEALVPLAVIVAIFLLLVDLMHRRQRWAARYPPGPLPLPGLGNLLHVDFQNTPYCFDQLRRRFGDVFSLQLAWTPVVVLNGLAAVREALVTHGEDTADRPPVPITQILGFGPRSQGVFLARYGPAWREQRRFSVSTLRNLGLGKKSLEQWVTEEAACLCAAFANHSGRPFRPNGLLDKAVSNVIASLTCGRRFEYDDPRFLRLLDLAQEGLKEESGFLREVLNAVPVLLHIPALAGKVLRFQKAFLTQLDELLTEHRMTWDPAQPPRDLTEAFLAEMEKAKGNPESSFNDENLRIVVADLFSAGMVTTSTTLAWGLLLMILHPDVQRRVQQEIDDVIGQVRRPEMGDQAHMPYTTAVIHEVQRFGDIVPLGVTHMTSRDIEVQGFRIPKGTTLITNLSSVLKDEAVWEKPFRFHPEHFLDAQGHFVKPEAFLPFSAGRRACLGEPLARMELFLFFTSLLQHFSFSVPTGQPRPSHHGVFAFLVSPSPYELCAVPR
- Assay Explanation: Drug-Drug Interaction (DDI) assay, CYP inhibition in human liver microsomes
- Measurement Setup: read-out: 2D6 Dextromethorphan IC50, substrate dextromethorphan
pIC50: −log10 of the molar value.

>  <Structure As Smiles>
O=C(Nc1cccnc1)N1CCN(Cc2ccc3c(c2)OC(F)(F)O3)CC1

>  <pIC50>
5.70

$$$$
>  <Structure As Smiles>
O=C(Nc1cnccc1Cl)N1CCN(Cc2ccc3c(c2)OC(F)(F)O3)CC1

>  <pIC50>
4.96

$$$$

====

- Tested System: FAAH (Homo sapiens (Human))
- Sequence (O00519 whole entry): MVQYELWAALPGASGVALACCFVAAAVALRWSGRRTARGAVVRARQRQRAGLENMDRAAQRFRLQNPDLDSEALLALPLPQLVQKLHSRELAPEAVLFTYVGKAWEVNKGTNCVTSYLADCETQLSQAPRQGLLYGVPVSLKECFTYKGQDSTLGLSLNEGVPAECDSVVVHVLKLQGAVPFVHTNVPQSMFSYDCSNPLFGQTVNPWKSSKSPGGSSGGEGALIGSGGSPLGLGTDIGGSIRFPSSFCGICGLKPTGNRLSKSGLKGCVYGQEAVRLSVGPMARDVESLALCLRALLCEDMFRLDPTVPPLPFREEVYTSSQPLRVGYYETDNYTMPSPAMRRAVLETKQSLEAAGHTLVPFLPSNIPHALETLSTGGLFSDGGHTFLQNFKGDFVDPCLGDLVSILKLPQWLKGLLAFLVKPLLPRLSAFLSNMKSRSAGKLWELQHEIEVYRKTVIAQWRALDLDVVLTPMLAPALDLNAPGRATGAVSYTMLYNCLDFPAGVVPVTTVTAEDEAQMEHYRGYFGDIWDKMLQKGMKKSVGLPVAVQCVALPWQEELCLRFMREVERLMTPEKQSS
- Assay Explanation: Assay Method 1: human FAAH assay (3H-anandamide hydrolysis in cell homogenate)
- Type: biochemical
- Measurement Setup: average of results
Experimental Readout: IC50 (nM)

>  <Compound>
O=C(Nc1cnccc1Cl)N1CCN(Cc2ccc3c(c2)OC(F)(F)O3)CC1 [Example 1]

>  <Experimental Readout>
IC50

>  <Endpoint Result>
75

$$$$
